Provenance of the data: the EternaBench riboswitch data

System: MS2 coat protein
experiment-description: apparent Kd, MS2 coat protein; higher = weaker binding; RNA-MaP array; FMN 200 µM where present
condition-info: designed as: OFF switch for flavin mononucleotide; no ligand
Each record gets a class by apparent Kd: lower bin (below 10 nM), middle bin (10 nM to below 30 nM), upper bin (30 nM or more)

UUACUACAUGAGGAUCACCCAUGUCAGGAUAUUGGAUAUGCCUUGGAAUACGUGUUUACAAGAAGGGACUAUAU :: middle bin
GGCUGACAUGUAGGAUAUCUGCACGUGUAGUGCAGAGAAGGACAUGAGGAUCACCCAUGUAUAGCGACUUCGGUCGCAACAGCC :: upper bin
GUCAGCUCGUGAGGAUAUACAACAAUGCUUCGGCAGUGUAUUAAGAUCACAUGAGGAUCACCCAUGUAGAAGGCACGAGCUGAU :: lower bin

# classify by apparent Kd band: CAGUACUGAGGAUAUACAUGAGGAUCACCCAUGUGCUUUAGCUAGGAUACUAGCACCAGUAGAAGGCAGUACUG
middle bin

// next record UGAUAGGACAGAGGAUAUGCGUAUAGUUACCUCUACAUGAGGAUCACCCAUGUAGAAGGCUGUCCUAUCUAAGUCGGAAACGAC
lower bin

// next record CUCAUGUAAGGAUAUCUACGCGCUAAGGUGCGUCUAUCACAAGAGAAGGUACAUGAGGAUCACCCAUGUAAAGA
upper bin

---

Tested on: MS2 coat protein
experiment-description: apparent Kd, MS2 coat protein; higher = weaker binding; RNA-MaP array
condition-info: designed as: ON switch for theophylline; no ligand
result-type: apparent Kd (nM)
# output: bare number, implied unit nM

Sample answers from the record:
GCAUUAUUAUUAGAUACCAGUGUCGCAGGCGACAUGAGGAUCACCCAUGUAAAGUUACUCCACCCUUGGCAGCUAGUUCGACUAC :: 103
GGCCCACAUGAGGAUCACCCAUGUGUGGAUACCAGCCUCAUUUAGGGCCCUUGGCAGCCAGAUAGUAACAAGUCCGAAACACAGA :: 93.3
AGGAAGACGAUGGAUACCAGACAACCAGGGAACAUGAGGAUCACCCAUGUGAUUGAAAGGGUCCCUUGGCAGCCAGAAGCCGUUG :: 88.3

Tell me the measured apparent Kd of AAGAGACAUGAGGAUCACCCAUGUGUUGAUACCAGAAACACAAAGUUCCCUUGGCAGCAAAUCUGAGCGAAACGAUCUAGAGCGC , please.
48.4

---

This listing pairs sequences with measured apparent Kd.
Tested on: MS2 coat protein
experiment-description: apparent Kd, MS2 coat protein; higher = weaker binding; RNA-MaP array; FMN 200 µM where present
condition-info: designed as: OFF switch for flavin mononucleotide; no ligand
# output: bare number, implied unit nM

CUGAUGUGAGGAUAUGUGAUCUGCCUUCUAUGUAGAUGAUCACAGAAGGCACAUGAGGAUCACCCAUGUAGAUC :: 85.9
AAAAGUCGGCAAGGAUAUACAACGGAUUCCCUUGUAGAAGGUGCAGGACAUGAGGAUCACCCAUGUGAUCCGGGUAUAUUGAUG :: 27.8
GGCGGCAAUGAGAAGGGUCACAUGAGGAUCACCCAUGUGCUCUUCGCCGUGACAGGAUAUCAUCGCCGUCAGGUUAGAUUUUUG :: 7.26
GCUCUUGUCAAGAAGGGCUCGCGGUACGCUGCAGCAGGAUAUUGACAUGAGGAUCACCCAUGUCGACCGGAACAUCAUUGAGGG :: 26.2
CGAGCUGCUGUGAGGAUAUGCCUGUGGGUGCGUGGGUAGAAGGCACAUGAGGAUCACCCAUGUCCUGCAGCUCG :: 856

Consider now this further sequence.
Tell me the measured apparent Kd of AUUGCUCGAGAGAAGGGAACAUGAGGAUCACCCAUGUUACCUCACCUGGUGACGGAACUCCAAGUUCAGGAUAUCUCGAACGAU , please.
5.63
